# Assayed target: Human Nav1.5 (Homo sapiens)
# Construct: expressed in transfected cells; host or cells: HEK293
# Sequence (Q14524 whole entry): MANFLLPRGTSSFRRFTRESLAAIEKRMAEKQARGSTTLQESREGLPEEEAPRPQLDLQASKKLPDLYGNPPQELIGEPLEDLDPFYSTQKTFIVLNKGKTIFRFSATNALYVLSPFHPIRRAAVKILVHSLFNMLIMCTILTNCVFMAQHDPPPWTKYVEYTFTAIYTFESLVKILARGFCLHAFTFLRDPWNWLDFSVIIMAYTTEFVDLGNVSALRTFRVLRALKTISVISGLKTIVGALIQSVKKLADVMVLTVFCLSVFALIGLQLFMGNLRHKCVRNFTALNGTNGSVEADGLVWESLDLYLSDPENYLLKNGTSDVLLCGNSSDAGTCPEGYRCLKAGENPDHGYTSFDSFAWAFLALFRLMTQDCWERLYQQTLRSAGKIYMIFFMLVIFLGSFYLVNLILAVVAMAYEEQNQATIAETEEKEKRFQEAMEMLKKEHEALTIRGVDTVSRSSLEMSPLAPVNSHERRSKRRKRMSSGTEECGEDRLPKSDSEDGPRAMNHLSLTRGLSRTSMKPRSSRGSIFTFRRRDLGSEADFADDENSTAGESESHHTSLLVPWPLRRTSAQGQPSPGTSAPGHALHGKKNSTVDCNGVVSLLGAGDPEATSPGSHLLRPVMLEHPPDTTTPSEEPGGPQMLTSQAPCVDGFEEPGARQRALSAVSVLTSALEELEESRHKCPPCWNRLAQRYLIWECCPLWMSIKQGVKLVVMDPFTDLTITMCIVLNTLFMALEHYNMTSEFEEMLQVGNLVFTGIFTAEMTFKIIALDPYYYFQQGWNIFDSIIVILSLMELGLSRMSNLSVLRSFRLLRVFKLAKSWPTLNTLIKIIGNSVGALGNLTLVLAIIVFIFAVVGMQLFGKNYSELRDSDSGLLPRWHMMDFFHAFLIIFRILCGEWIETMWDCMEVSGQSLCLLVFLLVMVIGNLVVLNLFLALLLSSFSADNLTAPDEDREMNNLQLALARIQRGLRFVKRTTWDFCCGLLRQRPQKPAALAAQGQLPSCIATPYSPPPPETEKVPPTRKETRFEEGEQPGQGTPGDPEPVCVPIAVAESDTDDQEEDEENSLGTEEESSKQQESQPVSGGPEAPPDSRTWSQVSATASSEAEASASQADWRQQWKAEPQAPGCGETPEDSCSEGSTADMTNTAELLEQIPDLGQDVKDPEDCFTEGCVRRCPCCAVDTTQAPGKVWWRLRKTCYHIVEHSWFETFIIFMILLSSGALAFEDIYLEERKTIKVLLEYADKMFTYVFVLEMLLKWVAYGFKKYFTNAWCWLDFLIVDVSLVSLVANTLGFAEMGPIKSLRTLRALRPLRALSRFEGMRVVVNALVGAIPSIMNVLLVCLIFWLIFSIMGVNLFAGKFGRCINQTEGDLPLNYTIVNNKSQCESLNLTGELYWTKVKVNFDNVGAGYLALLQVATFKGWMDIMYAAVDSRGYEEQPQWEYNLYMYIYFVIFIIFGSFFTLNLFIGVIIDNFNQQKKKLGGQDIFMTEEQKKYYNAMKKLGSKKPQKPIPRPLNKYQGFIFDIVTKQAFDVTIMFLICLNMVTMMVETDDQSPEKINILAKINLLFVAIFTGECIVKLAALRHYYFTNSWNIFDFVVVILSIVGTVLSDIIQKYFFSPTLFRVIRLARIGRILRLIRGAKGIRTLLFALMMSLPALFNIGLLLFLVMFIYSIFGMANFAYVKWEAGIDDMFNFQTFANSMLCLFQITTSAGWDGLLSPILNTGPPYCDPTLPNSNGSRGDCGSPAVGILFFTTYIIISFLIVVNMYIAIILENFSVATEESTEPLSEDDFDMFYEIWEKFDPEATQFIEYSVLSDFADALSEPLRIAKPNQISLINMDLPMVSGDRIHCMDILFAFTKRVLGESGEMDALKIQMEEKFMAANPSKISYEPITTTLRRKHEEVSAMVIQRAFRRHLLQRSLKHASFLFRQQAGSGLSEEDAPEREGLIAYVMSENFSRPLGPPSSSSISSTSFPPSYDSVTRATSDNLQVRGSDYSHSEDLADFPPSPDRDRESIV
# Assay overview: Nav1.5 Assay (VIPR, HEK293 cells)
# Type: cell-based
# Condition info: HEK293 cells expressing Human Nav1.5; average of replicates; read-out: Nav1.5 IC50
Classes (IC50): Low (below 10 µM), Medium (10 µM to below 30 µM), High (30 µM or more)

Examples with answers:
Compound	Answer label
COC(C)COc1ccccc1-c1ccc(NC(=O)c2conc2C)nc1N (stereo not shown) [Example 161]	High
CCn1nccc1C(=O)Nc1ccc(-c2ccccc2OC(F)(F)F)c(N)n1 [Example 59]	High
CCOc1ccc(F)cc1-c1ccc(NC(=O)c2conc2C)nc1N [Example 135]	Medium

Class label required: COCCCOc1ccc(F)cc1-c1ccc(NC(=O)c2ccnn2C)nc1N [Example 153]
High

Which band does Cc1nocc1C(=O)Nc1ccc(-c2ccccc2OC(F)F)c(N)n1 [Example 38] fall in?
Medium
